- Tested on: HepG-2 liver tumors
- Method description: Transplanted tumor in nude mice, intraperitoneal, HepG-2
- Format: in vivo, BALB/c nude mice
- Experimental parameters: HepG-2 tumor-bearing BALB/c mice, 5 mg/kg i.p. once every 3 days, 8 administrations
Below, each entry is listed alongside its reported Body Weight After administration.
Measured endpoint: Body Weight After administration (g)

{"Compound": "CC1(C)CC(NC(=O)C(Cc2ccc(-c3ccccc3)cc2)NC(=O)Cc2ccccc2Nc2c(Cl)cccc2Cl)CC(C)(C)N1 (stereo not shown)", "Value measured": 22.7}
{"Compound": "CC(C(=O)NC(Cc1ccc(-c2ccccc2)cc1)C(=O)NC1CC(C)(C)NC(C)(C)C1)c1cccc(C(=O)c2ccccc2)c1 (stereo not shown)", "Value measured": 23.5}
{"Compound": "CC(=O)Oc1ccccc1C(=O)NC(Cc1ccc(-c2ccccc2)cc1)C(=O)NC1CC(C)(C)NC(C)(C)C1 (stereo not shown)", "Value measured": 22.9}
{"Compound": "C/C(=C1/c2ccc(F)cc2C(CC(=O)NC(Cc2ccc(-c3ccccc3)cc2)C(=O)NC2CC(C)(C)NC(C)(C)C2)C1C)c1ccc([S+](C)[O-])cc1 (stereo not shown)", "Value measured": 23.1}
{"Compound": "COc1ccc2c(c1)c(CC(=O)NC(Cc1ccc(-c3ccccc3)cc1)C(=O)NC1CC(C)(C)NC(C)(C)C1)c(C)n2C(=O)c1ccc(Cl)cc1 (stereo not shown)", "Value measured": 21.9}
{"Compound": "CC1(C)CC(NC(=O)C(Cc2ccc(-c3ccccc3)cc2)NC(=O)c2cc3ccccc3n2Cc2ccccc2)CC(C)(C)N1 (stereo not shown) [PL-AC-15, reference compound]", "Value measured": 23.8}
{"Compound": "COc1ccc2cc(C(C)C(=O)NC(Cc3ccc(-c4ccccc4)cc3)C(=O)NC3CC(C)(C)NC(C)(C)C3)ccc2c1 (stereo not shown)", "Value measured": 22.8}

----------
- Test system: SK-hep1 liver tumors
- Method description: Transplanted tumor in nude mice, intraperitoneal, SK-hep1
- Format: in vivo, BALB/c nude mice
- Experimental parameters: SK-hep1 tumor-bearing BALB/c mice, 5 mg/kg i.p. once every 3 days, 8 administrations
Below, each entry is listed alongside its reported Body Weight After administration.

{"Compound": "CC(C(=O)NC(Cc1ccc(-c2ccccc2)cc1)C(=O)NC1CC(C)(C)NC(C)(C)C1)c1cccc(C(=O)c2ccccc2)c1 (stereo not drawn)", "Study target": "SK-hep1 liver tumors", "Body Weight After administration (g)": 23.0}
{"Compound": "CC1(C)CC(NC(=O)C(Cc2ccc(-c3ccccc3)cc2)NC(=O)c2cc3ccccc3n2Cc2ccccc2)CC(C)(C)N1 (stereo not drawn) [PL-AC-15, reference compound]", "Study target": "SK-hep1 liver tumors", "Body Weight After administration (g)": 23.2}
{"Compound": "CC1(C)CC(NC(=O)C(Cc2ccc(-c3ccccc3)cc2)NC(=O)Cc2ccccc2Nc2c(Cl)cccc2Cl)CC(C)(C)N1 (stereo not drawn)", "Study target": "SK-hep1 liver tumors", "Body Weight After administration (g)": 24.7}
{"Compound": "CC(=O)Oc1ccccc1C(=O)NC(Cc1ccc(-c2ccccc2)cc1)C(=O)NC1CC(C)(C)NC(C)(C)C1 (stereo not drawn)", "Study target": "SK-hep1 liver tumors", "Body Weight After administration (g)": 23.7}
{"Compound": "COc1ccc2cc(C(C)C(=O)NC(Cc3ccc(-c4ccccc4)cc3)C(=O)NC3CC(C)(C)NC(C)(C)C3)ccc2c1 (stereo not drawn)", "Study target": "SK-hep1 liver tumors", "Body Weight After administration (g)": 24.9}
{"Compound": "COc1ccc2c(c1)c(CC(=O)NC(Cc1ccc(-c3ccccc3)cc1)C(=O)NC1CC(C)(C)NC(C)(C)C1)c(C)n2C(=O)c1ccc(Cl)cc1 (stereo not drawn)", "Study target": "SK-hep1 liver tumors", "Body Weight After administration (g)": 22.2}
